Each recorded value in this set is attributed to ChEMBL document CHEMBL5665443.

# SYSTEM: Endonuclease 8-like 2 (Homo sapiens) (UniProt Q969S2);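 note: fluorescence at 594 nm reports NEIL2 cutting and release of a quenched double-stranded DNA oligo substrate, reduced signal read as inhibition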
# Sequence (Q969S2 whole entry): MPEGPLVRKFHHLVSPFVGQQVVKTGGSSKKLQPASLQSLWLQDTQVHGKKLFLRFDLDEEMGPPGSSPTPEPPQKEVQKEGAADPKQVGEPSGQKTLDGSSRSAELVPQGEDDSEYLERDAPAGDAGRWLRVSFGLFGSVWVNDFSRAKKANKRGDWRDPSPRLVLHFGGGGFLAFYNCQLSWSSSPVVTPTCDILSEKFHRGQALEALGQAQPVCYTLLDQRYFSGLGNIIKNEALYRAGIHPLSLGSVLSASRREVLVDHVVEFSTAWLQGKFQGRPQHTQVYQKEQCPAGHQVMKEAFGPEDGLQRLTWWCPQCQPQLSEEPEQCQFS
# TEST_PARAMETERS: Compound Concentration 10.0 uM, Hit No
# Description: Inhibition of NEIL2 by quantifying inhibition of NEIL2-mediated cleavage and dissociation of quenched duplex DNA oligonucleotides, measured as fluorescence at 594 nm.
Where a SMILES comes first, the peptide text is derived from it. Bridges are numbered along the chain shown (N, C = ends). [ ]: non-standard residue; d: D form. Orn = NCCC[C@H](N)C(=O)O; Mpa = O=C(O)CCS
MEASURED_ATTRIBUTE: inhibition (%)
One number for each entry, in %.

Previously resolved entries follow.
Exercise: Look up inhibition for this compound: Cc1cc(OC2CCS(=O)(=O)CC2)cc(C)c1-c1cccc(COc2ccc(CCC(=O)O)c(F)c2)c1
Solution: -9.42

Exercise: Bench note: what inhibition did CCCCC(=O)N(Cc1ccc(-c2ccccc2-c2nnn[nH]2)cc1)[C@H](C(=O)O)C(C)C show?
Solution: 1.76

Exercise: Consider the compound shown here: CN(CCN1CCC(OC(=O)Nc2ccccc2-c2ccccc2)CC1)C(=O)c1ccc(CN2CCC(C(N)=O)CC2)cc1 What is its recorded inhibition?
Solution: -7.72

Exercise: Can you share its inhibition? I mean this compound: CCOc1ccc(C[C@H]2NC(=O)CCSSC[C@@H](C(=O)N3CCC[C@H]3C(=O)N[C@@H](CCCN)C(=O)NCC(N)=O)NC(=O)[C@H](CC(N)=O)NC(=O)[C@H]([C@@H](C)O)NC(=O)[C@H]([C@@H](C)CC)NC2=O)cc1 ([Mpa][dY](Et)ITNCP[Orn]G-NH2; disulfide 1-6)
Solution: 9

Exercise: Value lookup for inhibition; key = C[C@H](c1ccnc(Nc2nc3ccc(-c4cc(N(C)C)ncn4)cc3[nH]2)c1)N1CCN(C(=O)CC(F)(F)F)CC1
Solution: -5.59

List the reported inhibition of each compound below.
1. Cn1cc(-c2ccc3occ(-c4cccc(-c5ccncc5)c4)c3n2)cn1
2. Cn1cc(Cl)c2c(Oc3c(F)cc(Nc4cc(Cl)nc(N)n4)cc3F)ccnc21
3. CCOc1ccccc1C(=O)NCC1(N2CCN(CC)CC2)CCCCC1
4. c1cc(OCCCN2CCCCC2)ccc1CN1CCCCC1
5. CC(C)OC(=O)C1=CN(C(=O)c2ccc(F)c(F)c2)CC(C)(C)c2c1[nH]c1ccccc21
6. CO[C@H]1CC[C@H](CNc2ccc(S(=O)(=O)NC(=O)c3ccc(N4CCN(CC5=C(c6ccc(Cl)cc6)CC(C)(C)CC5)CC4)cc3Oc3cnc4[nH]ccc4c3)cc2[N+](=O)[O-])CC1
7. NC[C@@H]1O[C@H](C23CC4CC(CC(C4)C2)C3)Cc2c1ccc(O)c2O
8. CCc1ccc(N(CC(C)C)S(=O)(=O)c2ccc(OCC3CCOCC3)c(CO)c2)cc1

Solution:
1. -5.69
2. 2.57
3. 3.22
4. -0.733
5. 3.08
6. 2.57
7. 24.7
8. -1.25

For every item below, please supply its inhibition.
1. C[C@H](NC(=O)c1c(C(F)F)nn(C)c1Oc1cccc(C(F)(F)F)c1)c1ccc(C(=O)O)cc1
2. NCCc1c[nH]c2ccc(O)cc12
3. O=C(Nc1cccc(C(F)(F)F)c1)c1cc(Cl)ccc1O
4. CC(C)N(CCCCOCC(=O)NS(C)(=O)=O)c1cnc(-c2ccccc2)c(-c2ccccc2)n1
5. Cc1cc(SCc2sc(-c3ccc(C(F)(F)F)cc3)nc2C)ccc1OCC(=O)O
6. CCOP(=O)(OCC)C(=Cc1cc(C(C)(C)C)c(O)c(C(C)(C)C)c1)P(=O)(OCC)OCC
7. CCc1cccc(CC)c1NC(=O)c1nn(C)c2c1CCc1cnc(Nc3ccc(C(=O)NC4CCN(C)CC4)cc3OC(F)(F)F)nc1-2

Solution:
11.8
9.75
-5.45
6.75
1.55
11.2
13.7
